Each entry below carries its reported growth inhibition.
- protocol: NCI Yeast Anticancer Drug Screen. Data for the CLN2oe strain (AID 163);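 also: 0% = growth of vehicle-only control cultures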
- conditionContext: S. cerevisiae CLN2oe strain, at 1.2 µM, active compounds read high
This is part of a sample that, as a whole, favours compounds with a hit. Of some 79,000 tested, about 15% had one in any assay.
propertyLabel: growth inhibition (%)

- CCNc1ccc2c(c1)C(=O)N(OS(C)(=O)=O)C2=O: 5
- Clc1cc(Cc2ccc(N=C/C=C/c3ccccc3)c(Cl)c2)ccc1N=C/C=C\c1ccccc1: -3
- Cc1ccc(S(=O)(=O)N/N=C/C2(c3ccccc3)c3ccccc3-c3ccccc32)cc1: 37
- O=Nn1c2ccccc2c2ccccc21: 11
- CCCCCCSc1nc(COC(=O)NC)c(COC(=O)NC)n1C: -2
- CCCCC(CC)C(=O)Oc1ccc(C(=O)c2ccccc2)c(O)c1 (stereo not drawn): 0
- N#CC(=C1C=CC(=NO)C=C1)c1ccccc1: 2
- Cc1cc(C(C)(C)CC(C)(C)C)cc(O)c1O: 2

====

- protocol: NCI Yeast Anticancer Drug Screen. Data for the wt2 strain (AID 169);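 also: 0% = growth of vehicle-treated yeast cultures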
- conditionContext: S. cerevisiae wt2 strain growth inhibition; at 3.7 µM; active compounds read high
The panel holds about 79,000 compounds, 15% with a hit somewhere; the sample as a whole holds those more often.
Reported growth inhibition values for the following molecules.
propertyLabel: growth inhibition (%)

* Cc1c(-c2ccccc2)[nH]c2ccccc12 | 5
* CCn1ncc(N=O)c1N | 18
* NC(N)=N/N=C/c1cc(Cl)cc(Cl)c1O | -40
* CCOC(=O)CNC(=O)c1[nH]cnc1/N=N/N(C)C | 1
* CC1=CCCC2C1(C)CCC(C)C2(C)Cc1cc(O)ccc1O (stereo unspecified) | -7
* CCCCCCCCCCCc1nc(N)n[nH]1 | 6
* CN(C)c1ccc(/C=C/c2ccnc3ccccc23)cc1N | -8
* CN(C)CCN1C(=O)c2cccc3cc([N+](=O)[O-])cc(c23)C1=O | 0
* CCC(=O)Oc1ccc(/C=N/NC(N)=S)nc1 | 7
* CCN1/C(=C/c2ccc3ccccc3[n+]2CC)C=Cc2ccccc21 | -20
* Clc1c(Cl)c(Cl)c2n[nH]nc2c1Cl | -18

====

// reported growth inhibition per item
- protocol: NCI Yeast Anticancer Drug Screen. Data for the CLN2oe strain (AID 163);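 also: 0% = growth of vehicle-only control cultures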
- conditionContext: S. cerevisiae CLN2oe strain, at 33.0 µM, active compounds read high
About 79,000 compounds went through this panel and 15% of them were active in at least one assay; those are over-represented in the sample as a whole.
propertyLabel: growth inhibition (%)

* O=[N+]([O-])c1cccc2nc3ccccc3c(NCCc3cccc[n+]3[O-])c12 | 35
* C/C(=N\NC(=S)NNC(=S)N(C)c1ccccc1)c1ccccn1 | 98
* CC1=CCC(C(C)(C)c2ccc(O)cc2)CC1 (stereo not drawn) | 97

====

- protocol: NCI Yeast Anticancer Drug Screen. Data for the mec2-1 strain (AID 157)
- conditionContext: S. cerevisiae mec2-1 strain, at 50.0 µM (retest, dose inferred, filed as 5.0), active compounds read high
About 79,000 compounds went through this panel and 15% of them were active in at least one assay; those are over-represented in the sample as a whole.
Response key: True means growth inhibition >= 90%; False means growth inhibition < 90%.

- CCOC(=O)C(NC(=O)CC)(N1CCN(c2cc3c(cc2F)c(=O)c(C(=O)O)cn3C2CC2)CC1)C(F)(F)F (stereo not drawn): False
- O=C1CSC(=S)N1Cc1ccc(Cl)cc1Cl: True
- Cn1ncc2cc3c(Nc4ccc(Cl)cc4)cccc3nc21: False
- CCN(CC)N=Nc1c(C(N)=O)n[nH]c1C: False
- CN(Cc1cnc2nc(N)nc(N)c2n1)c1ccc(C(=O)NC(CCC(=O)O)C(=O)O)c2ccccc12 (stereo not drawn): True
- Cc1ccc(S(=O)(=O)N(C)c2ccc(Cl)cc2C2=NCCc3ccccc32)cc1: False
- O=C1c2c(O)cccc2-c2nn(CCNCCO)c3ccc(NCCNCCO)c1c23: False
- CCc1[nH]nc(C(N)=O)c1N=NN(C)C: False
- N#CSC1CCCCNC1=O (stereo not drawn): False
- O=[N+]([O-])c1cc(S(=O)(=O)Nc2ccccc2)ccc1Cl: True
- CC(=O)N1C(=O)/C(=C\C(=O)c2ccc(Cl)cc2)c2ccccc21: True
- Cc1cc(C(C)(C)CC(C)(C)C)cc(O)c1O: True
- Clc1c(Cl)c(Cl)c2c(nnn2C2CCCO2)c1Cl (stereo not drawn): False
- O=C(/C=C\c1ccc([N+](=O)[O-])o1)Nc1ccc(Cl)cc1: False
- CCN(CC)CCNC(=O)c1nn(-c2ccc(Cl)cc2)c2c1CCc1cc(OC)ccc1-2: False
- O=c1[nH]c2ccccc2c2nc3ccccc3n12: True
- CC(=O)OCC1OC(O[C@H]2C=C[C@@H](C(=O)OCc3ccccc3)n3c(=O)n(-c4ccccc4)c(=O)n32)C(OC(C)=O)C(OC(C)=O)C1OC(C)=O (stereo partly drawn): False
- CCOC(=O)C1=C(C)NC(C)=C(C(=O)OCC)C1c1ccc(C)cc1: False
- Cc1cc(O)c2c(c1O)C(=O)C13C(=C2O)C(=O)C2C(O)C1C1C(O)C3C(=O)C3=C(O)c4c(O)cc(C)c(O)c4C(=O)C321 (stereo not drawn): True
- Cn1c2nc3ccccc3c-2nc2ccccc21: True
- O=C(Nc1ccc2c(c1)Cc1c-2ccc([N+](=O)[O-])c1F)C(F)(F)F: False
- O/N=C/C1c2ccccc2-c2ccccc21: False
- CC(=O)c1cc2c(Cl)cc(Cl)cc2oc1=O: True
- O=C1c2ccccc2CCC1(Br)Br: True
- OB(O)c1ccccc1C#Cc1ccccc1B(O)O: False
- O=C1C=CC(=O)N1c1ccc(N2C(=O)C=CC2=O)cc1: False
- COc1cccc(C(c2cc3c(cc2O)OCO3)N2CCOCC2)c1OC (stereo not drawn): False
- NC(N)=NCCCS(=O)(=O)Nc1ccc(Nc2c3ccccc3nc3cc([N+](=O)[O-])ccc23)cc1: False

These data points were gathered from PubChem BioAssay (NCI).
